Cited source for all entries: patent US20260250318A1

// Fold Enrichment relative to AAV9, Liver RNA (NHP) lookup, one value per entry
System: brains, heart, liver, muscle, and DRG of the NHPs
protocol details: Maturation of TTM-001 and TTM-002 capsids, NGS enrichment in NHP tissues
Format: in vivo
experimental conditions: NGS fold-enrichment, NHP liver RNA, relative to AAV9 control
observed property: Fold Enrichment relative to AAV9, Liver RNA (NHP) (fold)

INSERT INTO results (sequence_code, readout_number) VALUES
  ('KSINGHDSPHKSGQRQHT', 0.000),
  ('KTDAGHDSPHKSGQNQQT', 1.076),
  ('KTINGRGSPHKRGQNQQT', 0.458),
  ('KSINGHDSPHKSGQIQHT', 0.714),
  ('KAVNGHDSPHKSVQNQQT', 0.665),
  ('KTDNGHDSPHKSRQNQQT', 0.000),
  ('KTEHLSGSPHSKAQNQQT', 0.021),
  ('KTENMSGSPHSKAQNQQT', 0.000),
  ('KTINGHDSPHKSGQSKQA', 0.185),
  ('KTINGHDSPHKSRQDQHT', 0.030),
  ('KTEKTSGSPHSKAQNQQT', 0.000),
  ('KTITGHDSPHKSGQHLQT', 0.000),
  ('KTENVSGSPHSKAQNQQT', 0.964),
  ('KTINGHESPHKSGQNQHS', 0.090),
  ('KTEKMSGSPHSKAQNQQT', 0.000),
  ('KTITGHDSPHKSGQNQWT', 0.936),
  ('KTDKSSGSPHSKAQNQQT', 1.437),
  ('KTVNGHDSPHKSGQNHLT', 0.000),
  ('KTEGKHDSPHKSGQNQQT', 0.000),
  ('KTTNGHDSPHKSGQNQQG', 0.000),
  ('KTVNGSGSPHSKAPNQHT', 0.000),
  ('KTINGPDSPHKIGQNQQS', 0.000),
  ('KTINGSGSPHSKAQFPST', 0.849),
  ('KAINGSGSPHSKAQNLAT', 0.298),
  ('KTINGSGSPHSKAHVRQT', 0.694),
  ('KTINGSGSPHSKGHWQQT', 0.000),
  ('KTINGGGSPHSKALNQQN', 0.000),
  ('TTINGHDSPHKSGQNQQT (peptide inserted in AAV capsid)', 0.659),
  ('KTCNGHDSPHKSGRNQQT', 0.000),
  ('KTINGHDSPHKSGQSVPT', 0.136),
  ('KTINGHDSPHKSGRTQET', 0.000);

###

Tested on: brains, heart, liver, muscle, and DRG of the NHPs
protocol details: Maturation of TTM-001 and TTM-002 capsids, NGS enrichment in NHP tissues
Format: in vivo
experimental conditions: NGS fold-enrichment, NHP heart, relative to AAV9 control
observed property: Fold Enrichment relative to AAV9, Heart (NHP) (fold)

INSERT INTO measurements (sequence_code, readout_number) VALUES
  ('KTINGTGSPHSKAQNHQI', 0.000),
  ('KTVNGHDSPHKSLQNQQT', 0.301),
  ('KTINGSGSPHSKAHVRQT', 0.000),
  ('KTINGSGSPHSKALNRQS', 0.532),
  ('KTENMSGSPHSKAQNQQT', 0.000),
  ('KTVNGHDSPHKSGQTRQT', 0.080),
  ('KTTNGHDSPHKSGQNLLT', 0.064),
  ('KTINGPGSPHSKAHNQQT', 0.000),
  ('KTTNGHDSPHKSGQTQLT', 0.283),
  ('KSINGHDSPHKSGQRQHT', 0.357),
  ('KTVDGHDSPHKSGQKQQT', 0.069),
  ('KTDKSSGSPHSKAQNQQT', 0.012),
  ('KTINGHDSPHKSAQNYQT', 0.124),
  ('KTVNGSGSPHSKSQNQLT', 0.035),
  ('KTELWHDSPHKSGQNQQT', 0.020),
  ('KTENISGSPHSKAQNQQT', 0.000);

###

System: brains, heart, liver, muscle, and DRG of the NHPs
protocol details: Maturation of TTM-001 and TTM-002 capsids, NGS enrichment in NHP tissues
Format: in vivo
experimental conditions: NHP muscle; relative to AAV9 control
observed property: Fold Enrichment relative to AAV9, Muscle (NHP)

INSERT INTO measurements (sequence_code, study_target, result) VALUES
  ('KTINGSGSPHSKAQVGHT', 'brains, heart, liver, muscle, and DRG of the NHPs', '0.006 fold'),
  ('KTINGSGSPHSKAQGILT', 'brains, heart, liver, muscle, and DRG of the NHPs', '0.010 fold'),
  ('KGVLGSGSPHSKAQNQQT', 'brains, heart, liver, muscle, and DRG of the NHPs', '0.027 fold'),
  ('KTRDASGSPHSKAQNQQT', 'brains, heart, liver, muscle, and DRG of the NHPs', '0.010 fold'),
  ('KTINGSGSPHSKAQLHHT', 'brains, heart, liver, muscle, and DRG of the NHPs', '0.010 fold'),
  ('KTINGSGSPHSKAQIGHT', 'brains, heart, liver, muscle, and DRG of the NHPs', '0.000 fold'),
  ('KTINGSGSPHSKAQSLQI', 'brains, heart, liver, muscle, and DRG of the NHPs', '0.000 fold'),
  ('KTEYNSGSPHSKAQNQQT', 'brains, heart, liver, muscle, and DRG of the NHPs', '0.000 fold');

###

System: brains, heart, liver, muscle, and DRG of the NHPs
protocol details: Maturation of TTM-001 and TTM-002 capsids, NGS enrichment in NHP tissues
Format: in vivo
experimental conditions: NGS fold-enrichment, muscle of NHPs, relative to AAV9 control
observed property: Fold Enrichment relative to AAV9, Muscle (NHP) (fold)

INSERT INTO assay_data (sequence_code, study_target, readout_units, readout_number) VALUES
  ('KAEMGSGSPHSKAQNQQT', 'brains, heart, liver, muscle, and DRG of the NHPs', 'fold', 0.000),
  ('KTVNGNGSPHSKAQNQHT', 'brains, heart, liver, muscle, and DRG of the NHPs', 'fold', 0.000),
  ('KNINGGGSPHSKAQNQQT', 'brains, heart, liver, muscle, and DRG of the NHPs', 'fold', 0.000),
  ('KTINGSGSPHSKAQAFHT', 'brains, heart, liver, muscle, and DRG of the NHPs', 'fold', 0.058),
  ('KTSNASGSPHSKAQNQLT', 'brains, heart, liver, muscle, and DRG of the NHPs', 'fold', 0.297),
  ('KTINGSGSPHSKAQIPPT', 'brains, heart, liver, muscle, and DRG of the NHPs', 'fold', 0.000),
  ('KTINGSGSPHSKALHQHT', 'brains, heart, liver, muscle, and DRG of the NHPs', 'fold', 0.041),
  ('KTETHSGSPHSKAQNQQT', 'brains, heart, liver, muscle, and DRG of the NHPs', 'fold', 0.000);

###

// Fold Enrichment relative to AAV9, Brain (Mouse) lookup, one value per entry
Test system: brain
protocol details: Matured TTM-001 and TTM-002 variants, NGS enrichment in mouse brain
Type: in vivo, mice
experimental conditions: NGS fold-enrichment, brain of mice, relative to AAV9 control
observed property: Fold Enrichment relative to AAV9, Brain (Mouse) (fold)

INSERT INTO assay_data (sequence_code, readout_number) VALUES
  ('KTINGSGSPHSKAQPPAT', 117.453),
  ('KTIRDAGSPHSKAQNQQT', 113.179),
  ('KTINGSGSPHSKAQFPST', 119.712),
  ('KTINGSGSPHSKAQAKLT', 130.132),
  ('KTSNASGSPHSKAHNQQT', 67.967),
  ('KTINGSGSPHSKAQKQQD', 110.196),
  ('KTERISGSPHSKAQNQQT', 89.637),
  ('KTEFVSGSPHSKAQNQQT', 69.788),
  ('KTINGNGSPHSKAQNPLT', 53.583),
  ('KTINGGGSPHSKAQNQQC', 53.840),
  ('KTSSGSGSPHSKAQYQQT', 58.143),
  ('ETIKGSGSPHSKAQNQQT', 67.201),
  ('KESDGSGSPHSKAQNQQT', 115.231),
  ('KTENVSGSPHSKAQNQQT', 108.591),
  ('KTDKNSGSPHSKAQNQQT', 62.932),
  ('KTINGSGSPHSKSQNQHI', 76.025),
  ('KTELTSGSPHSKAQNQQT', 100.311),
  ('KTINGSGSPHSKSQNVQT', 56.672),
  ('KTDKMSGSPHSKAQNQQT', 88.234),
  ('KTSNGSGSPHSKAQNPPT', 51.541),
  ('KSINESGSPHSKAQNQQI', 67.649),
  ('KTESTSGSPHSKAQNQQT', 95.861);
